# assay.remarks: Bioavailability of phenylephrine: plasma levels after delivery to the colon via Enterion capsules or oral Sudafed PE
# Assay type: in vivo, human
# condition.parameters: both sexes, human, plasma, oral; 10 mg to colon via Enterion capsule (Regimen A); 8 h post-dose; read-out: Mean plasma concentration (Unconjugated)
Counter-ions that a name gives are not always drawn.
quantity.kind: concentration at 8 h (ng/mL)

[
  {
    "compound": "CNC[C@H](O)c1cccc(O)c1 [Phenylephrine hydrochloride, phenylephrine hydrochloride]",
    "assay.value": 0.068
  }
]

---

# assay.remarks: Bioavailability of phenylephrine: plasma levels after delivery to the colon via Enterion capsules or oral Sudafed PE
# Format: in vivo, human
# condition.parameters: both sexes, human, plasma, oral; 10 mg to colon via Enterion capsule (Regimen A); 3 h post-dose; read-out: Mean plasma concentration (Unconjugated)
Structures can show the parent of a compound that is named as a salt.
quantity.kind: concentration at 3 h (ng/mL)

[
  {
    "molecule": "CNC[C@H](O)c1cccc(O)c1 [Phenylephrine hydrochloride, phenylephrine hydrochloride]",
    "quantity.kind": "concentration at 3 h",
    "assay.value": 0.165
  }
]
